B1: library; numbered along this chain (parent)
chain: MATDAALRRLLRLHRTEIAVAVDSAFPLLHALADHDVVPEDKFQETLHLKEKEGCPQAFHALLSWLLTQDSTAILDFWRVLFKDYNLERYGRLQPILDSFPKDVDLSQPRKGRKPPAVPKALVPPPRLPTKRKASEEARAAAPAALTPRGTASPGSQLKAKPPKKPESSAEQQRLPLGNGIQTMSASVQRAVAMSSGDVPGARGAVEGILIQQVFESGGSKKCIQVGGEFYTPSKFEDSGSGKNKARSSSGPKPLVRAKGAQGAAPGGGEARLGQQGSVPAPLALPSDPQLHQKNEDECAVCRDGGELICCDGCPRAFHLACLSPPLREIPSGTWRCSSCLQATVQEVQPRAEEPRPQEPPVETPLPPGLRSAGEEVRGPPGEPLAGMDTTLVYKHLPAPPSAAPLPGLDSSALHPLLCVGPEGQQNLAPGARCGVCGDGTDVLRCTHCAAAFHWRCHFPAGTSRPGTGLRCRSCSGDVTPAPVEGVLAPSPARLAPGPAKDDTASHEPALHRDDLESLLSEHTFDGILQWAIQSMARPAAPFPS

- Variants of: B1
- measurement description: AIRE transcriptional activation functional score (insulin promoter-GFP; nonsense median 0, synonymous median 1) (normalised score); higher = higher AIRE activity (more reporter activation)
- condition label: with insulin promoter-GFP reporter in HEK293
For each record, write down the corresponding AIRE transcriptional activation functional score.

Query string: Entry V345Y : reported AIRE transcriptional activation functional score = ?
Result string: 1.02

Query string: Entry L519M : reported AIRE transcriptional activation functional score = ?
Result string: 0.992

Query string: Entry P466Q : reported AIRE transcriptional activation functional score = ?
Result string: 1.02

Query string: Entry R113E : reported AIRE transcriptional activation functional score = ?
Result string: 0.975
